# measurement description: Thermodynamic solubility of the compound in water
# Assay type: physicochemical
# test parameters: read-out: Therm_solubility
In this section we review reported solubility thermodynamic values for a set of molecules.

# molecule, unit name, solubility thermodynamic
measured = [
    ("CCCCCCCCn1cc(C(=O)OCC)c(=O)c2cc(F)c([C-](C#N)C(=O)OCC)cc21.[Na+] (configuration not stated)", "µg/mL", 27.5),
    ("CCOC(=O)c1cn(Cc2ccc(Cl)c(Cl)c2)c2cc([C-](C#N)C(=O)OCC)c(F)cc2c1=O.[Na+] (configuration not stated)", "µg/mL", 97.3),
]

* * *

# measurement description: MRT (0 to infinity) in mouse at 10 mg/kg, po
# Format: ADME, organism-based
# test parameters: in vivo
quantity measured: MRT

# compound, assay result
rows = [
    ("CCCCCCCCn1cc(C(=O)OCC)c(=O)c2cc(F)c([C-](C#N)C(=O)OCC)cc21.[Na+] (stereo unspecified)", "4.16 h"),
]

* * *

# System: Staphylococcus aureus
# measurement description: Antibacterial activity against Staphylococcus aureus assessed growth inhibition by micro broth dilution method
# Assay type: functional

# compound, unit name, MIC
measured = [
    ("CCOC(=O)c1cn(CC(=O)N2CCCCC2)c2cc(F)c(F)cc2c1=O", "µg/mL", 256),
    ("CCOC(=O)c1cn(CC2CCCC2)c2cc([C-](C#N)C(=O)OCC)c(F)cc2c1=O.[Na+] (stereo not given)", "µg/mL", 16),
    ("CCOC(=O)c1cn(CC(N)=O)c2cc([C-](C#N)C(=O)OCC)c(F)cc2c1=O.[Na+] (stereo not given)", "µg/mL", 256),
    ("CCOC(=O)C(C#N)c1cc2c(cc1F)c(=O)c(C(=O)O)cn2C1CC1 (stereo not given)", "µg/mL", 0.5),
    ("CCOC(=O)c1cn(Cc2ccccc2)c2cc([C-](C#N)C(=O)OCC)c(F)cc2c1=O.[Na+] (stereo not given)", "µg/mL", 64),
    ("CCOC(=O)c1cn(C)c2cc([C-](C#N)C(=O)OCC)c(F)cc2c1=O.[Na+] (stereo not given)", "µg/mL", 128),
    ("CCOC(=O)c1cn(CC)c2cc(C(C#N)C(=O)OCC)c(F)cc2c1=O (stereo not given)", "µg/mL", 32),
    ("C#CCn1cc(C(=O)OCC)c(=O)c2cc(F)c([C-](C#N)C(=O)OCC)cc21.[Na+] (stereo not given)", "µg/mL", 64),
    ("NC1CCN(c2c(F)cc3c(=O)c(C(=O)O)cn(C4CC4)c3c2Cl)C1 (stereo not given)", "µg/mL", 0.5),
    ("CCOC(=O)c1cn(CC)c2cc(F)c(F)cc2c1=O", "µg/mL", 32),
]

* * *

# Test system: Escherichia coli
# measurement description: Antibacterial activity against Escherichia coli ATCC 25922 assessed growth inhibition by micro broth dilution method
# Format: functional
One threshold, 4 µg/mL, splits the recorded MIC values: lower ones are 1, equal or higher ones are -1.

# molecule, assigned class
measured = [
    ("CCCCCCCCn1cc(C(=O)OCC)c(=O)c2cc(F)c(C(C#N)C(=O)OCC)cc21 (configuration not stated)", 1),
    ("CCOC(=O)c1cn(Cc2ccc(F)cc2F)c2cc([C-](C#N)C(=O)OCC)c(F)cc2c1=O.[Na+] (configuration not stated)", 1),
    ("CCOC(=O)C(C#N)c1cc2c(cc1F)c(=O)c(C(=O)O)cn2Cc1ccc(Cl)cc1Cl (configuration not stated)", 1),
    ("C#CCn1cc(C(=O)OCC)c(=O)c2cc(F)c(F)cc21", -1),
    ("CCOC(=O)c1cn(Cc2ccc([N+](=O)[O-])cc2)c2cc(C(C#N)C(=O)OCC)c(F)cc2c1=O.[Na+] (configuration not stated)", -1),
    ("CCOC(=O)c1cn(Cc2ccc(F)cc2F)c2cc(F)c(F)cc2c1=O", -1),
    ("CCOC(=O)c1cn(Cc2ccc(Cl)cc2Cl)c2cc(F)c(F)cc2c1=O", -1),
    ("CCCCCCCCCCCCn1cc(C(=O)OCC)c(=O)c2cc(F)c([C-](C#N)C(=O)OCC)cc21.[Na+] (configuration not stated)", 1),
    ("CCOC(=O)c1cn(C)c2cc([C-](C#N)C(=O)OCC)c(F)cc2c1=O.[Na+] (configuration not stated)", -1),
    ("CCCCCn1cc(C(=O)OCC)c(=O)c2cc(F)c([C-](C#N)C(=O)OCC)cc21.[Na+] (configuration not stated)", 1),
    ("CCOC(=O)c1cn(CC)c2c(F)c([C-](C#N)C(=O)OCC)c(F)cc2c1=O.[Na+] (configuration not stated)", 1),
    ("CCCCCCCCn1cc(C(=O)OCC)c(=O)c2cc(F)c([C-](C#N)C(=O)OCC)cc21.[Na+] (configuration not stated)", 1),
    ("CCCCn1cc(C(=O)OCC)c(=O)c2cc(F)c([C-](C#N)C(=O)OCC)cc21.[Na+] (configuration not stated)", -1),
    ("CCOC(=O)C(C#N)c1cc2c(cc1F)c(=O)c(C(=O)O)cn2Cc1ccc(F)cc1F (configuration not stated)", 1),
    ("CCOC(=O)c1cn(Cc2ccccc2)c2cc(C(C#N)C(=O)OCC)c(F)cc2c1=O (configuration not stated)", -1),
]
